experimental-target: Yer184c (UniProt P39961)
Sequence: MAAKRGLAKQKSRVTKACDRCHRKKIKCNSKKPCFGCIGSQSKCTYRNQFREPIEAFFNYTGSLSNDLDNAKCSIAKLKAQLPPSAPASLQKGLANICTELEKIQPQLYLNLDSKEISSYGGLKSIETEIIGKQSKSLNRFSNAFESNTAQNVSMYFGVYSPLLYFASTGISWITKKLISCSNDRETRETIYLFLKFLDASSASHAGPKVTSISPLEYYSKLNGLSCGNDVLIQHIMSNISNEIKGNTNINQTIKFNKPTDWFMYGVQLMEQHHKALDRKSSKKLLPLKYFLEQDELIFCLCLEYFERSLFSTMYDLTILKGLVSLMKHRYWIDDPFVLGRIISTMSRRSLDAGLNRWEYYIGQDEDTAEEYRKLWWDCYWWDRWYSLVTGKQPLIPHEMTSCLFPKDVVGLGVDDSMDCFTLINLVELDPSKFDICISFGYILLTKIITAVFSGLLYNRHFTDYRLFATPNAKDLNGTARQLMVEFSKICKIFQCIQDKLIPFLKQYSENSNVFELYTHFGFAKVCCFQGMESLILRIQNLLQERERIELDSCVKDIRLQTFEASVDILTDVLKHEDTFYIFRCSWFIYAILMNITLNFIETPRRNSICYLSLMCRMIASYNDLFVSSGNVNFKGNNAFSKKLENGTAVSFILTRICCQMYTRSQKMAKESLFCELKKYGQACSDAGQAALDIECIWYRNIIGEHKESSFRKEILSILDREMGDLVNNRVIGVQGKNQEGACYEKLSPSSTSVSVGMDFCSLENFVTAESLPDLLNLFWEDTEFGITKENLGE
assay-explanation: PBM E-score (8-mer binding enrichment) (E-score (-0.5 to 0.5)); higher = stronger / more preferred TF binding
test-settings: protein concentration: 100 nM; construct: GST-full length
Whole data set: some 33,000 sequences, median “E-score (-0.5 to 0.5)” near -0.016, cut for the highest 2% near 0.3. Only a selection was taken, and the highest values are over-represented in it overall.
attribute-measured: PBM E-score
Write the value as a bare number.

Measured PBM E-score of GCCGGCGA : 0.311

Kindly note the recorded PBM E-score for AACGTAAG , which is -0.122

The sequence AACATGGC showed PBM E-score equal to -0.317

The sequence listed as ACAGCCCA has a reported PBM E-score of -0.0828

Quick note, PBM E-score for CCTCTTCG landed at -0.00118

// CCAACCAC : PBM E-score value = -0.0234

Just so you know, measured PBM E-score for GCCGTAAA came out at 0.339

Entry AATGGTTA , PBM E-score reported as -0.0173

The value of PBM E-score measured for the sequence AGTCGGCC turned out to be 0.135

For record GCAACGGA the listed PBM E-score is 0.294

// recorded PBM E-score for TCCGTAAA : 0.303

Quick note, PBM E-score for CGCCGGTC landed at 0.228

What the record says about TATTCCCA : PBM E-score is 0.0619

sequence AAGTATCC , PBM E-score observed: 0.0522

For reference, reported PBM E-score for AATTCCAA stands at 0.116

Per the records, this sequence ( AAGCCGAT ) has PBM E-score equal to 0.356

// PBM E-score lookup, sequence = CGGTCTCA , result: 0.0469

So, CCACAAGA ? Its PBM E-score was 0.0207

Value of measured PBM E-score for the entry GAGCCGAA : 0.372

AAAATCGG yielded PBM E-score of 0.15

sequence GAGCCGAC , PBM E-score observed: 0.0364

Form field PBM E-score, entry AAAATGTA : -0.017

Lab book: PBM E-score of CAGTCGCG noted as -0.189

So for TCCAGGCA , the logged PBM E-score turned out to be -0.15

Record summary for AAGCCAAA : reported PBM E-score = 0.0744

// PBM E-score value for GCCGTAGC : 0.045

Value of PBM E-score reported for the sequence ATCAACTA is 0.178

get_value(item= ATGCTCTG , readout=PBM E-score) returns -0.178

Value of PBM E-score reported for the sequence GTCGCCTA is -0.157

Value of measured PBM E-score for the entry GACCGGCC : 0.203

Record summary for GGCCGGCA : reported PBM E-score = 0.415

Looking up AATACCGA , I found its PBM E-score recorded as 0.165

Quick note, PBM E-score for GATTCCGA landed at 0.33

According to the records, this sequence TACGCTAA displays PBM E-score of 0.0349

Looking up AACGGAAG , I see its PBM E-score listed as 0.179

Quick note, PBM E-score for CCCACGAA landed at -0.0234

Field PBM E-score (entry AGTTAGTG ) reads 0.00554

Lab note: measured PBM E-score of AAGCCGAA was 0.389

Sure, the documented PBM E-score for AACGGACA is 0.202

Given item GCCGGCCC , the value recorded as its PBM E-score is 0.343

get_value(item= ATCACGGG , readout=PBM E-score) returns -0.164

For this sequence ( TAGACCTA ), measured PBM E-score is -0.0542

response.value for CAGCCGAA (field: PBM E-score) = 0.229

Note to self: PBM E-score recorded for GCCGTAGA was 0.322

Sure, the documented PBM E-score for ACCGGCCC is 0.13

Data point: AGCCGGCC ; PBM E-score = 0.333

Please fill in: PBM E-score reported for ATTAACCG = 0.335

Measured PBM E-score of GACCTAAA : 0.0912

Documented PBM E-score of GACCGGCA : 0.173

Lab book: PBM E-score of AACGGAAT noted as 0.365

PBM E-score reading for AACGGAAA : 0.408

Query CAGCGTAC yields PBM E-score of -0.147

The reported PBM E-score of the sequence ACAGCGAA was 0.117

Kindly note the recorded PBM E-score for AGATTCAC , which is -0.157

Summary for this sequence, CTTGTCTC : PBM E-score is 0.0611

Just so you know, measured PBM E-score for GCCGGCCA came out at 0.348

Input CAGTCTCG . Output PBM E-score: -0.0905

Note to self: PBM E-score recorded for CGGTACCA was 0.0778

For this sequence ( GAGCATCC ), measured PBM E-score is -0.111

Lab note: measured PBM E-score of ACCACGAT was -0.0131

Reported PBM E-score for ACCGTAAA was 0.0422

Kindly note the recorded PBM E-score for CGGTACCG , which is 0.32

PBM E-score reading for ACCGGCGC : 0.226

Measured PBM E-score of AGCGGAAT : 0.0752

The sequence listed as CCACAGTC has a reported PBM E-score of -0.3

Query CCTGAAAC yields PBM E-score of 0.15

Per the records, this sequence ( ATCACGGC ) has PBM E-score equal to 0.197

The recorded PBM E-score for TATTCCAA is 0.115

sequence ATTAACCC , PBM E-score observed: 0.0664

Memo: ACCTCTAA , reported PBM E-score: 0.0296

AAGCCGAC yielded PBM E-score of 0.13

What the record says about ATCACGGA : PBM E-score is 0.307

According to the records, this sequence TAAGCTAA displays PBM E-score of 0.138

Consider GACGGCCC . Its measured PBM E-score is -0.168

What the record says about ACCATTCA : PBM E-score is 0.00717

// sample ATTAACCA , its PBM E-score was -0.114

Sure, the documented PBM E-score for GAGGGAGC is -0.277

Value of PBM E-score reported for the sequence GATTCCCA is -0.0287

Data point: TCATCGCA ; PBM E-score = -0.0385

# sequence GCCGGCGC ; its PBM E-score = 0.406

// AGCCAAGG : PBM E-score value = -0.16

Entry CTCGGAAA — recorded PBM E-score = 0.289

According to the records, this sequence GGCCGGTA displays PBM E-score of 0.248

The sequence GTCGGAAC showed PBM E-score equal to 0.217

Record CCCGGCGA , field PBM E-score: 0.236

So, CCCCGGCC ? Its PBM E-score was 0.0277

// PBM E-score lookup, sequence = AAGCCGAG , result: 0.286

Looking up GGCCGGCC , I see its PBM E-score listed as 0.384

So for ACCCGGCC , the logged PBM E-score turned out to be 0.255

Sure, the documented PBM E-score for CACAGAAC is -0.13

The sequence listed as CTCGGAAC has a reported PBM E-score of 0.358
